The reported measurements were obtained from PubChem BioAssay (NCI).

- Test system: OVCAR-4 ovarian
- EXPERIMENT NOTES: NCI tumour cell line growth inhibition, 48 h
QUANTITY: TGI

Worked examples follow.
COC(=O)c1cc(C)ccc1/C=C1\Cc2cc(C)c(C)cc2C1=O    > 100 µM
CNC(=O)Nc1cc2c3c(c1)CCCN3CCC2    > 10 µM
COC(=O)c1cc(C#N)[nH]c1-c1ccsc1    > 100 µM
CCOC(=O)c1sc2nc(SC)nc(Nc3ccc4c(c3)OCCCO4)c2c1N    > 100 µM
C[C@H](c1ccc(Cl)cc1N)N1C(=O)c2cc(I)ccc2N(CCCN2CCN(C)CC2)C(=O)[C@@H]1c1ccc(Cl)cc1    3.43 µM

Turning to the following compound.
Q. # TGI lookup, item CC(=O)OCc1nc(C#N)c(N)o1
A. > 100 µM

###

- System: MCF7 breast
- EXPERIMENT NOTES: NCI tumour cell line growth inhibition, 48 h
QUANTITY: TGI

Worked examples follow.
CC(C)[Si](OC12CCC(CC1O)CC2C(=O)O)(C(C)C)C(C)C (stereo not drawn)    31.7 µM
CC1=C(C)SC(=C2Sc3c(n(C)c(=O)[nH]c3=O)S2)S1    > 100 µM
CC(=O)C1(c2ccccc2)CCN(Cn2sc3nc(C)cc(C)c3c2=O)CC1    > 100 µM
CC(C)(C)CN1[C@@H]2CCCC[C@H]2N(CC(C)(C)C)P1(=O)Cc1ccccc1    26.2 µM
COc1ccc(OC)c(/C=C/c2nnc(Nc3ccc(Cl)cc3)o2)c1    > 100 µM
CN(C)CCOc1cc2c(c3ccccc13)-c1ccccc1C2=O    5.6 µM
CC(=O)c1ccc(-c2oc(-c3ccccc3)cc2-c2ccc3c(c2)OCO3)s1    > 100 µM
N=c1nc(N)c2cc3c(N)nc(=N)c3cc12    > 100 µM

Q. # TGI lookup, item c1ccc(N/N=C2\CC(c3ccccc3)Oc3ccccc32)cc1 (stereo not drawn)
A. > 100 µM

Q. Next molecule up: CCCSc1cc(Cl)c(C)cc1S(=O)(=O)n1cc[nH]c1=O
A. > 100 µM

###

Overview of reported GI50 across a group of compounds:
- Tested on: SK-MEL-2 melanoma
- EXPERIMENT NOTES: NCI tumour cell line growth inhibition, 48 h

Worked examples follow.
Nc1ncc(-c2cnn(C3CCNCC3)c2)cc1-c1nc2ccccc2o1    1100 nM
CCCCCCCCN(CCCCCCCC)C(=N)c1ccnc2ccccc12    1780 nM
CCc1ccc(C2=C/C(=C/c3ccc(Cl)cc3)C(=O)N2CCc2ccc(S(N)(=O)=O)cc2)cc1    2270 nM

Q. # GI50 lookup, item CS(=O)(=O)c1ccc(N/N=C/c2c(-c3ccc(S(C)(=O)=O)cc3)[nH]c3ccc(F)cc23)cc1
A. 1740 nM

###

- Test system: CCRF-CEM leukemia
- EXPERIMENT NOTES: NCI tumour cell line growth inhibition, 48 h
QUANTITY: TGI

Worked examples follow.
OCCN1CCN(CCO)Cc2ccccc2OCCOc2ccccc2C1    > 100 µM
Cc1ccc(S(=O)(=O)Nn2c(-c3ccccc3)c(C#N)c(-c3ccc(Cl)cc3)c(C#N)c2=O)cc1    60.4 µM
NC(=S)SCCC(=O)O    > 100 µM
COC(=O)c1cccc(NC(=O)Nc2ccc3oc(=O)c4ccccc4c3c2)c1    26.2 µM
Cc1cc(N(CCC#N)CCC#N)ccc1/C=C1/CN(N2C(=O)/C(=C/c3ccc(N(CCC#N)CCC#N)cc3C)N=C2c2ccccc2)C(c2ccccc2)=N1    > 100 µM

Turning to the following compound.
Q. # TGI lookup, item N=c1c2c(ncn1N)Oc1c(c(-c3ccccc3)nn1-c1ccccc1)C2c1ccc(Cl)cc1 (stereo unspecified)
A. > 100 µM

###

- Tested on: MALME-3M melanoma
- EXPERIMENT NOTES: NCI tumour cell line growth inhibition, 48 h
QUANTITY: TGI

CSc1nc(NC2OCC(OC(C)=O)C(OC(C)=O)C2OC(C)=O)c(N=CC=Nc2c(NC3OCC(OC(C)=O)C(OC(C)=O)C3OC(C)=O)nc(SC)n(C)c2=O)c(=O)n1C (stereo unspecified)    > 100 µM
Cc1cc(S(=O)(=O)Nc2nc(N)n(-c3cnc4ccccc4n3)n2)c(S)cc1Cl    > 100 µM
CCOC(=O)/C(=C/c1ccc(OC)c(OC)c1)C(=O)c1ccccc1    > 100 µM
O=C(O)c1ccc(Nc2ccnc3cc(Cl)ccc23)cc1O    > 100 µM
COC1Cc2c(C)c(OC(C)=O)c3cccnc3c2O1 (stereo unspecified)    31.9 µM

Turning to the following molecule.
Q. # TGI lookup, item O=C1O/C(=C\c2ccc(O)c(Br)c2)C(c2ccc(O)cc2)=C1Cl
A. > 100 µM

###

Overview of reported TGI across a group of compounds:
- Test system: UACC-62 melanoma
- EXPERIMENT NOTES: NCI tumour cell line growth inhibition, 48 h

Q. # TGI lookup, item COC(=O)C1=CC(O)CCC1c1ccc(OC)cc1 (centres undefined)
A. > 100 µM

###

Overview of reported TGI across a group of compounds:
- System: NCI-H226 lung
- EXPERIMENT NOTES: NCI tumour cell line growth inhibition, 48 h

Worked examples follow.
CCc1cc(-c2nsc(=O)o2)c(S(=O)(=O)CC)s1    > 100 µM
N=c1ccn2c(n1)OC1C(OP(=O)(O)O)C(CO)OC12 (stereo not given)    > 100 µM
CCCCCCN(CCCCCC)C(=N)c1ccnc2ccccc12    26.7 µM
Cc1nc(Nc2nnc(-c3cc([N+](=O)[O-])cc([N+](=O)[O-])c3C)o2)sc1C(=O)CC(=O)Cc1nc2ccc(Cl)cc2[nH]c1=O    > 100 µM
Nc1ncc(-c2cnn(C3CCNCC3)c2)cc1-c1nc2ccccc2o1    6.59 µM
COc1ccccc1/C=C/C(=O)c1sc(-c2cccnc2)nc1C    > 100 µM

Q. Form: Entry = CC1(C)S[C@@H]2[C@H](NC(=O)CCC[C@@H](N)C(=O)O)C(=O)N2[C@H]1C(=O)O | System = NCI-H226 lung | TGI = ____
A. > 50 µM

Q. Next compound up: CC(C)=CCNc1ncnc2c1ncn2CCC(=O)OC(C)(C)C
A. > 100 µM

Q. Next compound up: C[C@]12CC[C@@H]3c4ccc(OC(=O)c5ccccc5)cc4CC[C@H]3[C@@H]1CCC2OC(=O)c1cccc2c(=O)c3ccccc3[nH]c12 (stereo not given in full)
A. 39.6 µM

Q. Next compound up: O=C(OCc1ccccc1)N1CCNCCNCC1
A. > 100 µM

###

- Tested on: CAKI-1 renal
- EXPERIMENT NOTES: NCI tumour cell line growth inhibition, 48 h
Overview of reported TGI across a group of compounds:

Q. # TGI lookup, item O=C(O)/C(Cl)=C(\Cl)Nc1cccc(C(F)(F)F)c1
A. > 100 µM

Q. Next compound up: COC(=O)c1ccccc1C1CN=NC12Cc1c(C)cc(C)cc1C2=O (stereo unspecified)
A. > 100 µM

Q. Next compound up: COc1ccc(-c2oc3c(CC(=O)O)cccc3c(=O)c2OC)cc1
A. 42.6 µM

Q. Next compound up: COc1ccc(NC(=O)C(=O)C(CC2C(=O)NC(=S)NC2=O)C(=O)c2ccc3ccccc3c2)c([N+](=O)[O-])c1 (stereo unspecified)
A. > 100 µM

Q. Next compound up: CC(=O)N1NC(c2ccccc2)=CC(=O)/C1=C/C(=O)c1ccccc1
A. > 100 µM

###

Overview of reported TGI across a group of compounds:
- Tested on: SF-539 CNS
- EXPERIMENT NOTES: NCI tumour cell line growth inhibition, 48 h

COC(=O)CCc1ccc2c(c1)CCC2    > 100 µM
COC(=O)[C@@H]1O[C@]12C(CO[Si](C)(C)C(C)(C)C)OC(n1ccc(=O)[nH]c1=O)C2O[Si](C)(C)C(C)(C)C (stereo not given in full)    38 µM

Q. # TGI lookup, item CC(N)Cc1cccc(C(F)(F)F)c1 (stereo not given)
A. > 100 µM

Q. Next compound up: CCOC(=O)/C(C#N)=C(/NS(=O)(=O)c1cc(C)c(Cl)cc1[S-])[n+]1ccc(N(C)C)cc1
A. > 100 µM

Q. Next compound up: N#CN=Nc1cc(Cl)c(N=NC#N)cc1Cl
A. > 100 µM

###

Overview of reported TGI across a group of compounds:
- Tested on: SNB-19 CNS
- EXPERIMENT NOTES: NCI tumour cell line growth inhibition, 48 h

Worked examples follow.
Cc1[nH]c2c(C)ccc(C)c2c1CC(=O)O    > 100 µM
CC1(C)CC23C(=O)N(c4ccccc4)C(=Nc4ccccc4)NC2=CC(C#N)=C(C#N)C3O1 (stereo not given)    > 100 µM
Cc1cc(N(CCOS(C)(=O)=O)CCOS(C)(=O)=O)ccc1C=Nc1ccc(-c2csc(-c3ccccc3)n2)c(Cl)c1    > 61.1 µM
CN(C(=O)OC(C)(C)C)[C@H]1CCCC[C@H]1N1CCCC1    > 100 µM

Turning to the following compound.
Q. Form: Entry = NC(=O)/N=C(\N)NC(=O)c1ccccc1 | System = SNB-19 CNS | TGI = ____
A. > 100 µM
